Quick record of MIC values for Bacillus subtillis.
Metric Name: MIC (µg/mL)

[H]/N=C(/N)N[C@H]1[C@H](O)[C@@H](O)[C@H](O[C@@H]2O[C@@H](C)[C@](O)(C=O)[C@H]2O[C@@H]2O[C@@H](CO)[C@H](O)[C@@H](O)[C@@H]2NC)[C@@H](N/C(N)=N\[H])[C@@H]1O [Streptomycin, reference compound] :: 25.4
O=S(=O)(NC[C@@H](O)[C@@H]1CCc2cc(F)ccc2O1)c1ccc(Br)cc1 :: 15.1
O=S(=O)(NC[C@@H](O)[C@@H]1CCc2cc(F)ccc2O1)c1ccc(F)cc1 :: 31.6
O=S(=O)(NC[C@@H](O)[C@@H]1CCc2cc(F)ccc2O1)c1cccs1 :: 21.6
O=S(=O)(NC[C@@H](O)[C@@H]1CCc2cc(F)ccc2O1)c1cccc(C(F)(F)F)c1 :: 19.7
COC(=O)NC[C@@H](O)[C@@H]1CCc2cc(F)ccc2O1 :: 20.5
CC(C)COC(=O)NC[C@@H](O)[C@@H]1CCc2cc(F)ccc2O1 :: 26.1

====

Target: COX-2 (Ovis aries)
Sequence (P79208 17-603): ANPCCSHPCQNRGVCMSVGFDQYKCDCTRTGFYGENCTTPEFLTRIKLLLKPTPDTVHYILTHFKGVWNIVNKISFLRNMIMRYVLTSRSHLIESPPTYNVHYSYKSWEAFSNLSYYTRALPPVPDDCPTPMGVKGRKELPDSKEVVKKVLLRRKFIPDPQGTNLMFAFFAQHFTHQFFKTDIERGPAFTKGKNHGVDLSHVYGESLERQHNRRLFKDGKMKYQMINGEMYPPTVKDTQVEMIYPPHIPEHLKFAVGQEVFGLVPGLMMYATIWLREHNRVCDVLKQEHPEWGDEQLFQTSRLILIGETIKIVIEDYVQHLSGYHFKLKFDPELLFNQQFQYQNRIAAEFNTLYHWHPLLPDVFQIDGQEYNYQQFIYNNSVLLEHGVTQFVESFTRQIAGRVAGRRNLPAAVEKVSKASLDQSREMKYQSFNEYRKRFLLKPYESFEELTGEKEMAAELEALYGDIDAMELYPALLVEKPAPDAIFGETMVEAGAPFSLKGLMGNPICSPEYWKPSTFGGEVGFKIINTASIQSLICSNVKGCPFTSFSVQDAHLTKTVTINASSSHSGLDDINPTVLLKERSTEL
Test: Colorimetric COX
Assay type: biochemical, ovine
Conditions: read-out: % inhibition of COX, COX-2
Please use True whenever inhibition at 200 µM is not below 60%, and False whenever it is.

O=S(=O)(NC[C@@H](O)[C@@H]1CCc2cc(F)ccc2O1)c1cccc(C(F)(F)F)c1 :: False
O=C(NC[C@@H](O)[C@@H]1CCc2cc(F)ccc2O1)OCC(Cl)(Cl)Cl :: True
O=[N+]([O-])c1cc(S(=O)(=O)NC[C@@H](O)[C@@H]2CCc3cc(F)ccc3O2)ccc1Cl :: True

====

Measured Paw volume, listed per entry for reference.
Tested on: carrageenan-induced paw edema
Assay: Carrageenan induced hind paw edema assay
Assay type: in vivo
Conditions: rat, 100 mg kg^−1 p.o., 1 h after carrageenan, mean ± SEM
Metric Name: Paw volume (mL)

O=S(=O)(NC[C@@H](O)[C@@H]1CCc2cc(F)ccc2O1)c1cccc(C(F)(F)F)c1 [Compound 8e] :: 0.68
O=[N+]([O-])c1cc(S(=O)(=O)NC[C@@H](O)[C@@H]2CCc3cc(F)ccc3O2)ccc1Cl [Compound 8d] :: 0.78
O=C(NC[C@@H](O)[C@@H]1CCc2cc(F)ccc2O1)OCC(Cl)(Cl)Cl [Compound 9b] :: 0.76
COC(=O)NC[C@@H](O)[C@@H]1CCc2cc(F)ccc2O1 [Compound 9a] :: 0.72
O=S(=O)(NC[C@@H](O)[C@@H]1CCc2cc(F)ccc2O1)c1ccc(Br)cc1 [Compound 8b] :: 0.52
O=S(=O)(NC[C@@H](O)[C@@H]1CCc2cc(F)ccc2O1)c1cccs1 [Compound 8c] :: 0.60
O=S(=O)(NC[C@@H](O)[C@@H]1CCc2cc(F)ccc2O1)c1ccc(F)cc1F [Compound 8f] :: 0.62
Cc1ccc(-c2cc(C(F)(F)F)nn2-c2ccc(S(N)(=O)=O)cc2)cc1 [Celecoxib, reference compound] :: 0.80
